Biological target: HLA-DR11 (DRB1*1101) (human)
Assay: competition ELISA, tracer biotin-HA 306-318
Observation type: relative binding activity

Please review the following examples before continuing.
[
  {
    "Binder": "ARYNAQCQETIRVTK (synthetic 15-mer of the human midkine precursor; also called MDK17) [MDK 110-124]",
    "Observation type": "relative binding activity",
    "Experimental result": "69 IC50 ratio to reference peptide"
  },
  {
    "Binder": "KEFGADCKYKFENWG (also called MDK12) [MDK 78-92]",
    "Observation type": "relative binding activity",
    "Experimental result": "800 IC50 ratio to reference peptide"
  },
  {
    "Binder": "MQHRGFLLLTLLALL (synthetic 15-mer of the human midkine precursor; also called peptide 1-15) [MDK 1-15]",
    "Observation type": "relative binding activity",
    "Experimental result": "7 IC50 ratio to reference peptide"
  }
]

Continue with the next binder.
IN: Please look up its relative binding activity: LLALTSAVAKKKDKV (synthetic 15-mer of the human midkine precursor; also called MDK4; peptide 14-28) [MDK 14-28]
OUT: 48 IC50 ratio to reference peptide
